These entries and their values trace back to patent EP4810052A2.

target: porcine CRH receptor 1 (pig); assay: cell-based or functional assay
Starred links: 1 amine or outer side, 2 acyl side, 3 side chain; linkers in the order of their positions; H or OH if unused. Non-standard residues stand in square brackets, D forms with d. Groups on a side chain read outwards from the residue. No end group written: not given here. *: point of attachment. C20 diacid = O=C(O)CCCCCCCCCCCCCCCCCCC(=O)*; γGlu = O=C(O)[C@H](CCC(=O)[*:2])N[*:1]; NMeI = CC[C@H](C)[C@H](NC)C(=O)O; Nle = CCCC[C@H](N)C(=O)O; lip = not defined here; AEEA = NCCOCCOCC(=O)O; Aib = CC(C)(N)C(=O)O
Recorded Transient cell system EC50 (nM), pCRHR1; cAMP assay, transiently transfected CHO-K1 cells by entry

Previously resolved entries follow.
INSERT INTO assay_data (binder, result) VALUES
  ('[NMeI]VLSLDVPIGLLQILLEQARARAAREQAK(lip)TN[Aib]EILAEV-NH2 (reading uncertain; also: printed as [MeI]VLSLDVPIGLLQILLEQARARAAREQA[K*]TN[Aib]EILAEV(NH2)) [SEQ ID NO: 16, [MeI]VLSLDVPIGLLQILLEQARARAAREQA[K*]TN[Aib]EILAEV(NH2)]', '> 5000 nM'),
  ('PVLSLDVPIGLLQILLSQARARAAREQAK[Aib]NAEI[Nle]AEV-NH2 (not fully specified (residue 29); printed as PVLSLDVPIGLLQILLSQARARAAREQA[K*][Aib]NAEI[Nle]AEV(NH_2); also: lipid and spacer on Lys29 not given here) [SEQ ID NO: 238, PVLSLDVPIGLLQILLSQARARAAREQA[K*][Aib]NAEI[Nle]AEV(NH2)]', '> 5000 nM'),
  ('[NMeI]VLSLDVPIGLLQILLEQARARAAREQATKNAEILAEV-NH2 (not fully specified (residue 30); printed as [MeI]VLSLDVPIGLLQILLEQARARAAREQAT[K*]NAEILAEV(NH_2); also: lipid and spacer on Lys30 not given here) [SEQ ID NO: 6, [MeI]VLSLDVPIGLLQILLEQARARAAREQAT[K*]NAEILAEV(NH2)]', '> 5000 nM'),
  ('IVLSLDVPIGLLQILLEQARARAAREQAK(lip)TNAEILAEV-NH2 (not fully specified; reading uncertain) [SEQ ID NO: 3 (Lipidated UCN2 with X^36 = E; X^40 = E) (reference 1)]', '> 5000 nM');

Attention now shifts to the item below.
*Q* Which Transient cell system EC50 (nM), pCRHR1; cAMP assay, transiently transfected CHO-K1 cells value belongs to [NMeI]VLSLDVPIGLLQILLSQARARAAREQAK([AEEA-AEEA-γGlu-γGlu-C20 diacid])TN[Aib]EI[Nle]AEV-NH2 (not fully specified; printed as [MeI]VLSLDVPIGLLQILLSQARARAAREQA[K*]TN[Aib]EI[Nle]AEV(NH_2)) [SEQ ID NO: 215, [MeI]VLSLDVPIGLLQILLSQARARAAREQA[K*]TN[Aib]EI[Nle]AEV(NH2)] ?
*A* > 1000 nM
